Target: Amine oxidase [flavin-containing] B (Homo sapiens)
Sequence (P27338 whole entry): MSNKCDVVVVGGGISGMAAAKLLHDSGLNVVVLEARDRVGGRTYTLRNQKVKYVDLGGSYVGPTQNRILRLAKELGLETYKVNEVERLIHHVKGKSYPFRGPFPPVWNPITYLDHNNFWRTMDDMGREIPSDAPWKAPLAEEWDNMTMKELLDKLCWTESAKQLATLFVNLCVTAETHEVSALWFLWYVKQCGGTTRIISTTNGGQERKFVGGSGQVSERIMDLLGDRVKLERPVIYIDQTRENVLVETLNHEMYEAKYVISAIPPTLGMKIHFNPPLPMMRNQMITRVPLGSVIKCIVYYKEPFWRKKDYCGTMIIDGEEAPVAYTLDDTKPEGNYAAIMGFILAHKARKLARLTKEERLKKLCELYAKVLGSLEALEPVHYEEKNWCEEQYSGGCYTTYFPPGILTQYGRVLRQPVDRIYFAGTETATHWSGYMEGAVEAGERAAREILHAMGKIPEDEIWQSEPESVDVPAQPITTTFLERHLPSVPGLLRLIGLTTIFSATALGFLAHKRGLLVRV
Assay: Inhibition of recombinant human MAO-B
pIC50: −log10 of the molar value.

substance-smiles | pIC50
COc1cc(/C=C/C(=O)N2CCC(Cc3ccccc3)CC2)ccc1OC(=O)N(C)C | 5.05
COc1cc(/C=C/C(=O)N2CCc3ccccc3C2)ccc1OC(=O)N(c1ccccc1)c1ccccc1 | 4.91
COc1cc(/C=C/C(=O)N2CCc3ccccc3C2)ccc1OC(=O)N(C)C | 5.01
COc1cc(/C=C/C(=O)N2CCN(Cc3ccccc3)CC2)ccc1OC(=O)N(C)C | 4.78
CCN(C)C(=O)Oc1ccc(/C=C/C(=O)N2CCC(Cc3ccccc3)CC2)cc1 | 5.11
